The values you see were collected from PubChem BioAssay AID1897.

- tested on: Mitogen-activated protein kinase kinase kinase 2 (Homo sapiens) + Dual specificity mitogen-activated protein kinase kinase 5 (Homo sapiens) (UniProt Q9Y2U5+Q13163)
- Sequence (Q13163 whole entry, looked up): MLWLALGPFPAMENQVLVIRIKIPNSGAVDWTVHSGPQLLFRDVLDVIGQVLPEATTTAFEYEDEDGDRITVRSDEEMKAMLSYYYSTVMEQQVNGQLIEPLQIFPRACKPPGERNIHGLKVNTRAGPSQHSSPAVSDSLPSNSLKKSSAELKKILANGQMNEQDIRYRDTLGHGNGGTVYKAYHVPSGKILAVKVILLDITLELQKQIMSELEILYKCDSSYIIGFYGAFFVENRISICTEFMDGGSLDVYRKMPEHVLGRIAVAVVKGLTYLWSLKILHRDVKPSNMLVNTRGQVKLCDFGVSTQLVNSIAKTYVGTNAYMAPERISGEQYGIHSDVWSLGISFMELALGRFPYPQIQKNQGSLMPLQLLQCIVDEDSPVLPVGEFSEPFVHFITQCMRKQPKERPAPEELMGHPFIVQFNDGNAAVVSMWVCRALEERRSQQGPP
- Sequence (Q9Y2U5 whole entry, looked up): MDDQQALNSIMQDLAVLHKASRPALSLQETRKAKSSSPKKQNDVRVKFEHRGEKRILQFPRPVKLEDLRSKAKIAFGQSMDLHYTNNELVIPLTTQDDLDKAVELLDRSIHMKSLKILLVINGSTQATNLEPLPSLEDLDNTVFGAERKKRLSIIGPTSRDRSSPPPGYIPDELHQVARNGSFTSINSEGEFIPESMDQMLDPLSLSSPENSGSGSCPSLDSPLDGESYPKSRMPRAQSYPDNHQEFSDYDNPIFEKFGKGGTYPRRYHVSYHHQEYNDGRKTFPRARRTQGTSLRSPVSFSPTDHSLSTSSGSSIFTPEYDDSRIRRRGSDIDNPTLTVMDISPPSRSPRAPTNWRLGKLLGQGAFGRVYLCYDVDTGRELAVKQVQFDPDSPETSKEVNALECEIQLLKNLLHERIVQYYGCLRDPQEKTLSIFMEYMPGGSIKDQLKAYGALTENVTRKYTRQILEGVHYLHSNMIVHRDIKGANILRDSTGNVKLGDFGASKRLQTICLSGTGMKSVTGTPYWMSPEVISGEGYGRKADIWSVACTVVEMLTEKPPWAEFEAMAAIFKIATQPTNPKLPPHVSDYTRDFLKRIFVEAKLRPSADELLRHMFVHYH
- assay overview: inhibitors of MEK5 binding to MEKK2, dose response, biochemical, bead multiplex flow cytometry, wildtype (AID 1897)
- condition parameters: MEK5-MEKK2 PB1 binding
Active and inactive are the calls of the source. How the calls were made is not given here.
Returns: one label drawn from active, inactive

compound=C/C(=N\NC(=O)c1cc(O)cc(O)c1)c1ccc(NC(=O)Cc2ccccc2)cc1 qualitative_label=inactive
compound="C#CCOCCOCCOCCNc1nc(N2CCN(C(=O)[C@H](Cc3cc4ccccc4[nH]3)n3cc([C@@H](N)C(C)CC)nn3)CC2)nc(N2CCN(C(=O)[C@H](CCCCN)n3cc([C@@H](N)CC(C)C)nn3)CC2)n1 (stereo partly specified)" qualitative_label=active
compound="C#CCOCCOCCOCCNc1nc(N2CCN(C(=O)[C@H](CCC(=O)O)n3cc(C(N)CO)nn3)CC2)nc(N2CCN(C(=O)[C@H](Cc3cc4ccccc4[nH]3)n3cc(C(N)[C@H](C)CC)nn3)CC2)n1 (stereo partly specified)" qualitative_label=inactive
compound="COc1ccc(N2CC(C(=O)Nc3nnc(SCc4ccccn4)s3)CC2=O)cc1 (stereo unspecified)" qualitative_label=inactive

# outcome recorded in this test, key = CCc1ccc(Nc2n[n+](-c3ccccc3)c(-c3cc(OC)c(OC)cc3Br)s2)cc1
active

# outcome recorded in this test, key = CCCCCCCCCCOC(=O)Cn1c(COc2ccccc2)[n+](C)c2ccccc21
active

# outcome recorded in this test, key = CCOC(=O)C1=C(c2ccccc2)NC(N)=NC1c1ccc(OCc2ccc(Cl)cc2)c(OC)c1 (stereo unspecified)
active
